Values were extracted from patent US20260240851A1.

experiment: LTI-291-002 multiple ascending dose study: plasma and CSF pharmacokinetics; format: in vivo, human; settings: 10 mg daily, dose 14, geometric mean
READOUT: Cavg
# answer = value followed by unit

query: Item CCCCCO[C@H]1CC[C@H](NC(=O)c2cnn3c(C)cc(C)nc23)CC1 : provide Cavg
result: 313 ng/mL

---

assay: LTI-291-001 single ascending dose study: plasma pharmacokinetics and food effect; assay type: in vivo, human; conditions: human, plasma, po, 3 mg, 3 mg fasted, single oral dose, median; read-out: Tmax
READOUT: Tmax
Number plus unit, in that order.

query: Identify the reported Tmax for the following entry. CCCCCO[C@H]1CC[C@H](NC(=O)c2cnn3c(C)cc(C)nc23)CC1
result: 1.48 h
